What remaining at 3 h was measured for each of the following?
# assay-procedure: Chemical stability in aqueous buffer at pH 7.4 after 3 hrs
# Assay type: physicochemical
# particulars: read-out: Stability

The cases that follow already have their remaining at 3 h on record.
compound	remaining at 3 h
O=C(CCC(CO[N+](=O)[O-])O[N+](=O)[O-])Oc1ccccc1C(=O)O (centres undefined)	> 95%
O=C(CCO[N+](=O)[O-])Oc1ccccc1C(=O)O	55%
CC(=O)Oc1ccccc1C(=O)O [ASPIRIN]	> 90%
O=C(CCCC(CO[N+](=O)[O-])O[N+](=O)[O-])Oc1ccccc1C(=O)O (centres undefined)	> 95%
O=C(CCCCCCO[N+](=O)[O-])Oc1ccccc1C(=O)O	> 95%
O=C(O)c1ccccc1O [SALICYLIC ACID]	> 90%

Okay, here is my list. What is remaining at 3 h for each of these?
1. O=C(CCCCO[N+](=O)[O-])Oc1ccccc1C(=O)O
2. O=C(CC(CO[N+](=O)[O-])O[N+](=O)[O-])Oc1ccccc1C(=O)O (centres undefined)
3. O=C(CCCO[N+](=O)[O-])Oc1ccccc1C(=O)O

Reply |
1. > 95%
2. 20%
3. > 95%
